Biological target: T1, human APRIL protein (human, UniProt O75888 105-250, limits assumed)
T1 construct: Bought protein; also called recombinant APRIL protein
T1 sequence (looked up): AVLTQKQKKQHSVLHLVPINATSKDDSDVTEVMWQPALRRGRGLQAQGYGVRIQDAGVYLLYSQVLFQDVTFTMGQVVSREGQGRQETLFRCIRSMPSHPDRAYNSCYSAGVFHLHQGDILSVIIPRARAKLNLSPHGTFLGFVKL
Assay: ELISA, coated APRIL; antibody 0.534 nM

binder	OD450 nm
97A3C2H4 (antibody, V domains shown, Mouse hybridoma antibody purified on Protein G) VH: EVKLVESGGGLVQPGGSLKLSCAASGFTFSTYTMSWVRQTPEKRLEWVAYISYGGGSTSYPDTVKGRFTISRDNAKNTLYLQMSSLKSEDTAIYYCTRHVTVVENSMDYWGQGTSVTVSS VL: DILLTQSPDILSVSPGERVSFSCRASQSIGTSIHWYQQRTNGSPRLLIKYVSESFSGTPSRFSGSGSGTAFTLTINSVESEDIADYYCQQTHSWPWTFGGGTKLEIK	0.059
20D1B6E9E5 (antibody, V domains shown) VH: EVQLQQSVAELVRPGASVKLSCTASDFNIKNTYIHWVKQRPEQGLEWIGRIDPVNGNTKYAPKFQDKATIIVDTYSNTAYLQLSSLASEDTAVYYCARWPITTIVATDWYFDVWGTGTTVTVSS VL: DVLMTQTQLALPVRLGEQASISCRSSQSIVNSNGNTYLEWYLQKPGQSPKLLIYKVSNRFSGVPDRFSGSGSGTDFTLKISRVEAEDLGVYYCFQGSHVPWTFGGGTKLEIK	0.0611
8E7D9C7F5 (antibody, V domains shown) VH: QVQLQQSGVELARPGASVKLSCKASGYTFTSYGISWVKQRTGQALEWIGEIYPRSGNTYYNEKFKGKATLTADKSSSTAYMELRSLTSEDSAVYFCARSGPITTLVATDYGMDYWGQGTSVTVSS VL: DIVLTQSPASLAVSLGQRATISCRASKSVSTSSYSYMHWYQQKPGQPPKLLIKFASNLESGVPARFSGSGSGTDFTLNIHPVEEEDAATYYCQHSREFPYTFGGGTKLEIK	0.0599
2-1G11 (antibody, human IgG1, V domains shown) VH: EVQLVESRGGVVQPGRSLRLSCAASGFTFSSYGMHWVRQAPGKGLEWVAVISYDGSNKYYADSVKGRFTISRDNSKNTLYLQMNSLRAEDAAVYYCARDRVDILTGYSIYGMDVWGQGTTVTVSS VL: EIVMTQSPATLSLSPGERATLSCRASQSVSSYLAWYQQKPGQAPRLLIYDASKRATGIPARFSGSGSGTDFTLTISSLEPEDFAVYYCQQRSNWPLTFGGGTKVEIK	0.0668
